molecular target: UniProtKB Q05586; test: Antagonist activity at human NMDA NR1 receptor
pIC50: −log10 of the molar value.
measurementType: pIC50

// solved cases for pIC50 follow
molecule	pIC50
Cc1c(Cl)cc2[nH]c(=O)c(=O)[nH]c2c1N(CCO)S(C)(=O)=O	7.85
COCCN(c1c(Cl)c(C)cc2[nH]c(=O)c(=O)[nH]c12)S(C)(=O)=O	7.11
COCCN(c1c(C)c(Cl)cc2[nH]c(=O)c(=O)[nH]c12)S(C)(=O)=O	7.13
CC(O)CN(c1c(Cl)c(Cl)cc2[nH]c(=O)c(=O)[nH]c12)S(C)(=O)=O (stereo unspecified)	7.40

a. CS(=O)(=O)N(CC1CCCO1)c1c(Cl)c(Cl)cc2[nH]c(=O)c(=O)[nH]c12 (stereo unspecified)
b. Cc1cc2[nH]c(=O)c(=O)[nH]c2c(N(CC(=O)O)S(C)(=O)=O)c1Cl
Given the listed items, does a or b have the lesser reported pIC50? Lab log: write the label of the selected item as the result.
a
